- System: Kaposi's sarcoma herpesvirus LANA C-terminal domain (residues 932-1162) DNA binding
- testMethodNotes: inhibitors of KSHV C-LANA binding to DNA, primary screen, biochemical, fluorescence polarization, FAM-LBS DNA, MBP-C-LANA, single point (AID 504423)
- experimentalContext: at 9 µM
Among all 340,000 compounds or so, about 260 (0.076%) were called active.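 How the source made its calls: active means highest replicate inhibition at or above 60% at 9 µM, even if other replicates fall short; inactive means all replicates below 60% inhibition.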 Many of the other results were omitted from the sample, so actives are more common in it than they were.
API: response.call in active, inactive

See these solved cases before continuing.
# molecule, targetOfAssay, discreteLabel
rows = [
    ("O=C(CN1CCSCC1)N/N=C/c1ccc(F)cc1F", "Kaposi's sarcoma herpesvirus LANA C-terminal domain (residues 932-1162) DNA binding", "inactive"),
    ("Fc1ccccc1Cc1ccc(Cl)nn1", "Kaposi's sarcoma herpesvirus LANA C-terminal domain (residues 932-1162) DNA binding", "inactive"),
    ("CC12CCC(C(=O)N(CCC#N)CCC#N)(CC1=O)C2(C)C (stereo unspecified)", "Kaposi's sarcoma herpesvirus LANA C-terminal domain (residues 932-1162) DNA binding", "inactive"),
    ("COc1ccc(C2CC(=O)Oc3ccc(C(C)(C)C)cc32)cc1 (stereo unspecified)", "Kaposi's sarcoma herpesvirus LANA C-terminal domain (residues 932-1162) DNA binding", "inactive"),
    ("C=CC1=C(C(=O)O)N2C(=O)[C@@H](NC(=O)/C(=N/OCC(=O)O)c3csc(N)n3)[C@H]2SC1", "Kaposi's sarcoma herpesvirus LANA C-terminal domain (residues 932-1162) DNA binding", "active"),
    ("CCCn1nc(NC(=O)C(C)C)c2cc3cc(OC)ccc3nc21", "Kaposi's sarcoma herpesvirus LANA C-terminal domain (residues 932-1162) DNA binding", "inactive"),
]

Now for another entry.
## Input Recorded call for O=C(Nc1cc(-c2ccccc2)nn1-c1ccccc1F)c1ccc([N+](=O)[O-])cc1 ?
## Output inactive

Taken from PubChem BioAssay AID504423.
